Species on record: Rattus norvegicus
Assay: Open TG-GATES - Regimen: Daily Repeat
Assay type: toxicity, organism-based, Sprague-Dawley
Set-up: regimen Daily Repeat, gender Male, age 6 weeks
Conditions: in vivo, po, 1000 mg/kg, […], tissue Kidney, route gavage, dose level High, time 28 day
experimental.readout: KIDNEY_TOTAL (g)
State the answer as a number, implicitly in g.

Below are worked cases with known answers.
>  <compound>
O=C(O)c1ccccc1Nc1ccccc1

>  <value.observed>
3.3

$$$$
>  <compound>
CCCCNC(=O)NS(=O)(=O)c1ccc(C)cc1 [TOLBUTAMIDE]

>  <value.observed>
2.7

$$$$
>  <compound>
CC(=O)[C@@]1(O)CC[C@H]2[C@@H]3C=C(Cl)C4=CC(=O)CC[C@]4(C)[C@H]3CC[C@@]21C

>  <value.observed>
2.5

$$$$

Moving on to the next compound.
Give me measured KIDNEY_TOTAL, please, for this compound: CC(S)C(=O)NCC(=O)O (centres undefined)
3
